# System: HEK-293T
# experimental-details: Multiplex assay against HEK293T
# Format: toxicity, cell-based
# condition-notes: human, 24 h, 10 µM, compound concentration 10 uM, replicate 2
reported-property: Population Hoechst High Intensity Objects (%)
Note: unit % is implicit; provide only the numeric part.

Use the examples below as a reference point.
{"substance-smiles": "c1ccc2oc(-c3csc(C4CCN(Cc5nc6ncccc6[nH]5)CC4)n3)cc2c1", "assay-system": "HEK-293T", "value-reported": 3}
{"substance-smiles": "CC(=O)O[C@H]1C(=O)[C@@]2(C)[C@H]([C@H](OC(=O)c3ccccc3)[C@]3(O)C[C@H](OC(=O)[C@H](O)[C@@H](NC(=O)c4ccccc4)c4ccccc4)C(C)=C1C3(C)C)[C@]1(OC(C)=O)CO[C@@H]1C[C@@H]2O", "assay-system": "HEK-293T", "value-reported": 4}

Task: Can you look up the measured Population Hoechst High Intensity Objects (%) of `O=C(O)c1ccc2cc(-c3ccc(O)c(C45CC6CC(CC(C6)C4)C5)c3)ccc2c1` for me?
Output: 11
